Origin of values: patent US6982321

- system-name: partially purified Campath-1 antigen (obtained from a glycolipid extract from human spleen) (human) (UniProt P31358)
- experiment: direct binding assay on coated partially purified Campath-1 antigen, biotin anti-rat IgG2b detection; concentration at 50% maximal binding
measured-attribute: EC50 (µg/mL)

{"substance": "HuVHCAMP(Ser27 to Phe)-RaIgG2B (from UniProt P20761 1-333) (antibody)", "EC50 [µg/mL]": 1.8}

P. HuVHCAMP-RaIgG2B (from UniProt P20761 1-333) (antibody)
Q. HuVHCAMP(Ser27 to Phe, Ser30 to Thr)-RaIgG2B (from UniProt P20761 1-333) (antibody)
R. RaVHCAMP-RaIgG2B (from UniProt P20761 1-333) (antibody)
rank_up(items): orders items by reported EC50 in ascending numerical order. Response format: the labels, sorted as the prompt asks.
R, Q, P
(R: 0.7 µg/mL, Q: 2 µg/mL, P: 27.3 µg/mL)
